System: UACC-257 melanoma
procedure_details: NCI tumour cell line growth inhibition, 48 h
Assignment: determine reported TGI for the given molecules.

Worked cases, TGI given:
COc1cccc2c(N)c3cccc(C(=O)NCCN(C)C)c3nc12 ... 3.41 µM
O=C1/C(=C/c2ccccc2)N=C(c2ccccc2)N1n1c(-c2ccccc2)nc2ccccc2c1=O ... > 100 µM

For every record below, what is its TGI?
1. CC1OC(O[C@H]2C[C@@H](O)[C@]3(CO)[C@H]4[C@H](O)C[C@]5(C)[C@@H](C6=CC(=O)OC6)CC[C@]5(O)[C@@H]4CC[C@]3(O)C2)C(O)C(O)C1O (stereo not given in full)
2. Nc1cc(CO)cc(Nc2nc3ccc(Cl)cc3c3[nH]c4ccccc4c23)c1
3. COc1ccc2c(c1)c(-c1nc(-c3cn(C)c4ncccc34)cs1)cn2CCCN1CCCCC1
4. Cc1c(-c2nc3ccccc3[nH]2)c(=O)n(-c2ccccc2)n1C
5. Cc1c(F)c(N)c2c(=O)cc(-c3ccc(NC(=O)CN(C)C)c(F)c3)oc2c1F
6. O=C1C=CC(=Nc2ccc3c(c2)C(Br)c2ccccc2-3)O1 (stereo not given)
7. COc1ccc2[nH]c3c(C)c4c(c(C)c3c2c1)CN(C)CC4
8. COc1cccc(/C=N/NC(=O)c2ccccc2Nc2ccnc(C(F)(F)F)c2)c1O

Key:
1: 39.2 µM; 2: 23.2 µM; 3: 3.66 µM; 4: > 100 µM; 5: > 100 µM; 6: > 100 µM; 7: 32.7 µM; 8: 5.88 µM

For every record below, what is its TGI?
1. O=C1c2cccc(NCCN=Cc3cc(O)ccc3O)c2C(=O)c2c(NCCN=Cc3cc(O)ccc3O)cccc21
2. O=C1OCc2c1cc1ccc(O)c(OC3OC(CO)C(O)C(O)C3O)c1c2-c1ccc2c(c1)OCO2 (stereo not given)
3. COc1cc(OC)cc(-c2ccc(-c3ccc(C(=N)N)o3)o2)c1
4. O=C(Nc1ccc(N2CCNCC2)cc1)c1[nH]ncc1Nc1cc(Oc2ccccc2)ncn1
5. CCOP(=O)(OCC)/C(C#N)=C/c1cnc(-c2ccccc2)[nH]1

Key:
10.8 µM
> 100 µM
5.41 µM
8.69 µM
> 100 µM

Cited source for all entries: PubChem BioAssay (NCI)
